B1: Hairpin Ribozyme (parent)
chain: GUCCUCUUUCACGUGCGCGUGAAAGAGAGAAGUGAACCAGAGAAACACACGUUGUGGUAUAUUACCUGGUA

- Variants of: B1
- test.name: self-cleavage, relative activity (ratio to wild type); higher = more cleavage; co-transcriptional
property.name: self-cleavage

In [3]: df
Out[3]:
    residue_change  property_name  obs_value
 0       G25U A64U  self-cleavage      0.142
 1       C50A G68A  self-cleavage      0.143
 2       G19A G56U  self-cleavage      0.123
 3       A44U A71C  self-cleavage        0.3
 4       C38A U62G  self-cleavage      0.139
 5       A45G U60C  self-cleavage     0.0993
 6       C12A U52G  self-cleavage      0.757
 7       A47C G51C  self-cleavage      0.377
 8       A61G C66G  self-cleavage      0.329
 9       U14G C65U  self-cleavage      0.316
10       A36G A41C  self-cleavage        1.1
11       A11G A61C  self-cleavage       0.14
12       A23G G51U  self-cleavage       1.01
13       G15C G68C  self-cleavage      0.165
14       A31U C66U  self-cleavage     0.0749
15       G15U C48G  self-cleavage      0.213
16        G1U A30C  self-cleavage      0.178
17        C3G G32U  self-cleavage      0.141
18       C66U U70A  self-cleavage      0.356
19        U2G A45U  self-cleavage     0.0683
20       A23G U58C  self-cleavage      0.847
21       G21U U63G  self-cleavage      0.248
